Recorded values, source patent US9458092B2.

Target: TRPM8 (Rattus norvegicus, UniProt Q8R455)
Sequence (Q8R455 whole entry): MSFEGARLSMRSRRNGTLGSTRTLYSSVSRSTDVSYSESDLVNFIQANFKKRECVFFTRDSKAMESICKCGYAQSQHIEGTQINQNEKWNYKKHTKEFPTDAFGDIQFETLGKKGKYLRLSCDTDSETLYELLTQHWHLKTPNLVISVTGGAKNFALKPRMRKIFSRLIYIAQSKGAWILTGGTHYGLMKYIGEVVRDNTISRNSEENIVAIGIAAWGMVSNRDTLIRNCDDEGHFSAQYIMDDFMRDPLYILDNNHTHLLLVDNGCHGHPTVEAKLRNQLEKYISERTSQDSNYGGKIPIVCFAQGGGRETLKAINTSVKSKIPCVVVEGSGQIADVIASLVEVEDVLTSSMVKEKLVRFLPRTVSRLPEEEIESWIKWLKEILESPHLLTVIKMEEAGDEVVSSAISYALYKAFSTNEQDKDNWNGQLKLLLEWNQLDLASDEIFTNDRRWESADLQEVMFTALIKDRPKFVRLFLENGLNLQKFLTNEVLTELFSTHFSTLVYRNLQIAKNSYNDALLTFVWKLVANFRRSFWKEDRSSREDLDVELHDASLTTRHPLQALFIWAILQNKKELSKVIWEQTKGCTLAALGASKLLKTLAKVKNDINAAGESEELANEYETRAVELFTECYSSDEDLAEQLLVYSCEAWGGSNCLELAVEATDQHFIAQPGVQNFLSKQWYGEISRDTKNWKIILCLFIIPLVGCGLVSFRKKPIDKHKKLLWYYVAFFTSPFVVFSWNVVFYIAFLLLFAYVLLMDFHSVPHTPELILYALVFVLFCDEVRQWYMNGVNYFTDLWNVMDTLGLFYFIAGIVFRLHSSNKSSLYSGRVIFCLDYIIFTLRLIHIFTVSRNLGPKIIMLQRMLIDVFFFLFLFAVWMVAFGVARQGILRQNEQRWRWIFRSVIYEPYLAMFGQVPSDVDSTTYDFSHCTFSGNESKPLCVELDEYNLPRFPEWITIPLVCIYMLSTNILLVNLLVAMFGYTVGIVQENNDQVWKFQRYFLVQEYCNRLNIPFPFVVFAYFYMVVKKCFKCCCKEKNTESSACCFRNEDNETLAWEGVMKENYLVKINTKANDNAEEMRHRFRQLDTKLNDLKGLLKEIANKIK
Test: Confirmation test of inhibitory effects on icilin-induced wet-dog shakes
Format: in vivo, female SD rats
Set-up: test compounds were orally administered to female SD rats; from tissue; host or cells: whole animal (female SD rats), endogenous channel
Conditions: dose 3 mg/kg orally, icilin 1 mg/kg i.p. after 1 hour, shakes counted for 5 minutes
Endpoint name: % inhibition of Wet-Dog Shake (%)

# annotated cases, reported % inhibition of Wet-Dog Shake shown
* NC(=O)[C@@H](c1cccnc1)N(C(=O)c1ccccc1)[C@@H]1CCc2ccc(Cl)cc21 [Example 2-87LP] | 36
* NC(=O)[C@@H](c1cnccn1)N(C(=O)c1ccccc1O)[C@@H]1CCc2c(F)cc(Cl)cc21 [Example 4-8] | 37
* Cc1ncccc1C(=O)N([C@@H]1CCc2c(F)cc(Cl)cc21)[C@@H](C(N)=O)c1ccccc1 [Example 14LP] | 100
* NC(=O)[C@@H](c1ccccc1)N(C(=O)c1ccccc1)[C@@H]1CCc2c(F)cc(Cl)cc21 [Example 2-6LP] | 69
* NC(=O)[C@@H](c1ccccc1)N(C(=O)c1cccnc1)[C@@H]1CCc2c(F)cc(Cl)cc21 [Example 2-23LP] | 56

A. NC(=O)[C@@H](c1ccccc1)N(C(=O)c1cccnc1N)[C@@H]1CCc2c(F)cc(F)cc21 [Example 1-3]
B. Cc1ncccc1C(=O)N([C@@H]1CCc2c(F)cc(F)cc21)[C@@H](C(N)=O)c1ccccc1 [Example 2-131LP]
Which one would you say has the larger % inhibition of Wet-Dog Shake value: A , or B ? Use the label to indicate which entry you chose.
B

---

Target: TRPM8 (Rattus norvegicus, UniProt Q8R455)
Test: Confirmation test of inhibitory effects on icilin-induced wet-dog shakes
Type: in vivo, female SD rats
Design: test compounds were orally administered to female SD rats; from tissue; host or cells: whole animal (female SD rats), endogenous channel
Settings: dose 10 mg/kg orally, icilin 1 mg/kg i.p. after 1 hour, shakes counted for 5 minutes
Endpoint name: % inhibition of Wet-Dog Shake (%)

• Cc1cc(F)c2c(c1)[C@H](N(C(=O)c1cccnc1)[C@@H](C(N)=O)c1ccccc1)CC2 [Example 2-40LP] = 95
• Cc1cccc(C(=O)N([C@@H]2CCc3c(F)cc(Cl)cc32)[C@@H](C(N)=O)c2cccnc2)c1O [Example 19-41LP] = 92

a. NC(=O)[C@@H](c1ccccc1)N(C(=O)c1ccccc1)[C@@H]1CCc2ccc(Cl)cc21
b. COc1ccc2c(c1)[C@H](N(C(=O)c1cccnc1)[C@@H](C(N)=O)c1ccccc1)CC2
Hi there, can you help? I need to know whether a or b has lower measured % inhibition of Wet-Dog Shake. Respond using the label that marks the chosen record.
b

---

Molecular target: TRPM8 (Rattus norvegicus)
Experiment: Confirmation test of inhibitory effects on icilin-induced wet-dog shakes
Format: in vivo, female SD rats
Design: test compounds were orally administered to female SD rats; from tissue; host or cells: whole animal (female SD rats), endogenous channel
Details: dose 10 mg/kg orally, icilin 1 mg/kg i.p. after 1 hour, shakes counted for 5 minutes
Procedure: Test compounds were dissolved in dimethylacetamide (wako), and 0.5% methylcellulose solution (wako) was added to make the solution or suspension containing 5% of dimethylacetamide. […] From 5 minutes after the administration of icilin, wet-dog shakes were counted for 5 minutes. For control example, vehicle (a mixture of dimethylacetamide (wako): 0.5% methylcellulose (wako)=5:95) was administrated similarly, and the number of wet-dog shakes was counted in the same manner. […]
Endpoint name: % inhibition of Wet-Dog Shake (%)

Look over these answered cases.
- NC(=O)[C@@H](c1ccccc1)N(C(=O)c1ccccc1N)[C@@H]1CCc2c(F)cc(F)cc21: 89
- NC(=O)[C@@H](c1ccccc1)N(C(=O)c1ccccc1O)[C@@H]1COc2ccc(Cl)cc21: 86
- NC(=O)[C@@H](c1ccccc1)N(C(=O)c1cncs1)[C@@H]1CCc2ccc(Cl)cc21 [Example 2-71LP]: 83
- NC(=O)[C@@H](c1cccc(N)c1)N(C(=O)c1ccccc1O)[C@@H]1CCc2c(F)cc(Cl)cc21: 94
- NC(=O)[C@@H](c1cccnc1)N(C(=O)c1c(O)cccc1F)[C@@H]1CCc2c(F)cc(Cl)cc21 [Example 19-15LP]: 72

I. NC(=O)[C@@H](c1ccccc1)N(C(=O)c1ccccc1)[C@@H]1CCc2c(F)cc(F)cc21 [Example 2-221LP]
II. NC(=O)[C@@H](c1ccccc1)N(C(=O)c1cccnc1)[C@@H]1CCc2c(F)cccc21 [Example 2-56LP]
Kindly compare I with II and tell me which has the lower % inhibition of Wet-Dog Shake figure. Identify your pick by its label.
II
(II: 50%, I: 100%)
